Tested on: HeLa Kyoto;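 further: synchronized HeLa Kyoto cells, proteins quantified by TMT10plex mass spectrometry, three biological replicates, mitosis taken 0.5 h after nocodazole release, G1/S directly after double thymidine block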
Assay: thermal stability score vs G1/S (z-score of summed log2 fold changes over temperatures); higher = more thermally stable than in G1/S
Conditions: cell cycle stage: early G1 (4.5 h after nocodazole release)
value-kind: thermal stability score
// return a plain number; no unit text

# record-sequence, value-kind, reported-value
data = [
    ("MAQSRDGGNPFAEPSELDNPFQDPAVIQHRPSRQYATLDVYNPFETREPPPAYEPPAPAPLPPPSAPSLQPSRKLSPTEPKNYGSYSTQASAAAATAELLKKQEELNRKAEELDRRERELQHAALGGTATRQNNWPPLPSFCPVQPCFFQDISMEIPQEFQKTVSTMYYLWMCSTLALLLNFLACLASFCVETNNGAGFGLSILWVLLFTPCSFVCWYRPMYKAFRSDSSFNFFVFFFIFFVQDVLFVLQAIGIPGWGFSGWISALVVPKGNTAVSVLMLLVALLFTGIAVLGIVMLKRIHSLYRRTGASFQKAQQEFAAGVFSNPAVRTAAANAAAGAAENAFRAP [SCAMP3]", "thermal stability score", -1.12),
]

Query: Which thermal stability score value is on record for MALSRVCWARSAVWGSAVTPGHFVTRRLQLGRSGLAWGAPRSSKLHLSPKADVKNLMSYVVTKTKAINGKYHRFLGRHFPRFYVLYTIFMKGLQMLWADAKKARRIKTNMWKHNIKFHQLPYREMEHLRQFRQDVTKCLFLGIISIPPFANYLVFLLMYLFPRQLLIRHFWTPKQQTDFLDIYHAFRKQSHPEIISYLEKVIPLISDAGLRWRLTDLCTKIQRGTHPAIHDILALRECFSNHPLGMNQLQALHVKALSRAMLLTSYLPPPLLRHRLKTHTTVIHQLDKALAKLGIGQLTAQEVKSACYLRGLNSTHIGEDRCRTWLGEWLQISCSLKEAELSLLLHNVVLLSTNYLGTRR [LETMD1] ?
Reply: -0.886
